assay-info: Approximate solubility of pomalidomide at 50°C in 96 solvent compositions (LC)
Type: physicochemical
study-conditions: binary solvent composition (main solvent and co-solvent), 50 °C, organic solvent or mixture, thermodynamic from solid, solvent system C11 of Table 7, read-out: Approximate Measured Solubility
readout-label: solubility at 2 h (µg/mL)
Provide the reading as a plain figure in µg/mL.

Field request: solubility at 2 h | item: Nc1cccc2c1C(=O)N(C1CCC(=O)NC1=O)C2=O (stereo not shown) [Pomalidomide]
490

* * *

assay-info: Approximate solubility of pomalidomide at 50°C in 96 solvent compositions (LC)
Format: physicochemical
study-conditions: binary solvent mixture (main solvent and co-solvent), 50 °C, organic solvent or mixture, thermodynamic from solid, solvent system G3 of Table 7, read-out: Approximate Measured Solubility
readout-label: solubility at 2 h (µg/mL)
Express it in µg/mL; write the number only.

Can you share its solubility at 2 h? I mean this compound: Nc1cccc2c1C(=O)N(C1CCC(=O)NC1=O)C2=O (stereo not shown) [Pomalidomide]
700
